experiment: Cytotoxicity against human BGC803 cells after 24 hrs by MTT assay
Type: functional, cell-based
assay-context: BGC803, 24 h
Listed below: pIC50 values for each entry.
Remember the convention: pIC50 equals -log10 of concentration in molar.

For orientation, consider the following solved cases.
CC1(C)CC[C@]2(C(=O)O[C@@H]3O[C@H](CO[C@@H]4O[C@H](CO)[C@@H](O)[C@H](O)[C@H]4O[C@@H]4O[C@H](CO)[C@@H](O)[C@H](O)[C@H]4O)[C@@H](O)[C@H](O[C@@H]4O[C@H](CO)[C@@H](O)[C@H](O)[C@H]4O)[C@H]3O)[C@H](O)C[C@]3(C)C(=CC[C@@H]4[C@@]5(C)CC[C@H](O)[C@@](C)(C(=O)O[C@@H]6O[C@H](CO)[C@@H](O)[C@H](O)[C@H]6O)[C@@H]5CC[C@]43C)[C@@H]2C1 [DIANVERSICOSIDE E]    5.13
CC1(C)CC[C@]2(C(=O)O[C@@H]3O[C@H](CO[C@@H]4O[C@H](CO)[C@@H](O)[C@H](O)[C@H]4O[C@@H]4O[C@H](CO)[C@@H](O)[C@H](O)[C@H]4O)[C@@H](O)[C@H](O)[C@H]3O)[C@H](O)C[C@]3(C)C(=CC[C@@H]4[C@@]5(C)CC[C@H](O)[C@@](C)(C(=O)O[C@@H]6O[C@H](CO)[C@@H](O)[C@H](O)[C@H]6O)[C@@H]5CC[C@]43C)[C@@H]2C1 [DIANVERSICOSIDE F]    5.01
CC1(C)CC[C@]2(C(=O)O[C@@H]3O[C@H](CO[C@@H]4O[C@H](COC(=O)C[C@@](C)(O)CC(=O)O)[C@@H](O)[C@H](O)[C@H]4O[C@@H]4O[C@H](CO)[C@@H](O)[C@H](O)[C@H]4O)[C@@H](O)[C@H](O[C@@H]4O[C@H](CO)[C@@H](O)[C@H](O)[C@H]4O)[C@H]3O)CC[C@]3(C)C(=CC[C@@H]4[C@@]5(C)CC[C@H](O)[C@@](C)(C(=O)O)[C@@H]5CC[C@]43C)[C@@H]2C1 [DIANVERSICOSIDE D]    5.54

So what's the measured pIC50 for this one? CC1(C)CC[C@]2(C(=O)O)CC[C@]3(C)C(=CC[C@@H]4[C@@]5(C)CC[C@H](O)[C@@](C)(C(=O)O[C@@H]6O[C@H](CO[C@@H]7O[C@H](CO)[C@@H](O)[C@H](O)[C@H]7O[C@@H]7O[C@H](CO)[C@@H](O)[C@H](O)[C@H]7O)[C@@H](O)[C@H](O[C@@H]7O[C@H](CO)[C@@H](O)[C@H](O)[C@H]7O)[C@H]6O)[C@@H]5CC[C@]43C)[C@@H]2C1 [VACCAROID C]
5.03

So what's the measured pIC50 for this one? CC1(C)CC[C@]2(C(=O)O[C@@H]3O[C@H](CO[C@@H]4O[C@H](COC(=O)C[C@@](C)(O)CC(=O)O)[C@@H](O)[C@H](O)[C@H]4O[C@@H]4O[C@H](CO)[C@@H](O)[C@H](O)[C@H]4O)[C@@H](O)[C@H](O)[C@H]3O)[C@H](O)C[C@]3(C)C(=CC[C@@H]4[C@@]5(C)CC[C@H](O)[C@@](C)(C(=O)O[C@@H]6O[C@H](CO)[C@@H](O)[C@H](O)[C@H]6O)[C@@H]5CC[C@]43C)[C@@H]2C1 [DIANVERSICOSIDE A]
5.21
